Tested on: β-catenin/Tcf-4
measurement description: cells
Assay type: cell-based
reported conditions: Homo sapiens, SW480, 24 h, Tcf 33.13 cells derived from SW480; 24 hours of incubation with compound; ratio Firefly/Renilla luciferase
property: IC50 (nM)
Kindly provide the numeric value in nM only, without the unit symbol.

Example entries and their recorded answers appear below.
Cc1ccc2c(NCc3ccc(NC(=O)C4CCN(Cc5cccc(F)c5)CC4)cc3)nc(N(C)C)nc2c1
328
CNc1nc(NCc2ccc(NC(=O)c3ccc(C#N)cc3)cc2)c2cc(C)ccc2n1
2960

Please examine the following record next.
Task: Look up IC50 of `Cc1ccc2c(NCc3ccc(NC(=O)C4CCN(Cc5ccco5)CC4)cc3)nc(N(C)C)nc2c1` and report it.
Output: 1930

Source listed as patent US20090004185A1.
